Source of measurements: patent US20260374880

Target: T1, human TGFbR1 ECD-133-myc(His)6 (human)
T1 chain: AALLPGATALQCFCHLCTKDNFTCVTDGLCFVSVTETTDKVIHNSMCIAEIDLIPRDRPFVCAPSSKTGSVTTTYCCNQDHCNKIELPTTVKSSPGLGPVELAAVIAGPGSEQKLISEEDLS
Experiment: BLI
class 1 if Kd is below 9 nM. class 0 if not; exact matches included in class 0.

Solved entries (count: 4):
binder="YU772-H05 (antibody, V domains shown) VH: EVQLLESGGGLVQPGGSLRLSCAASGFTFSSYAMSWVRQAPGKGLEWVSAISGSGGTTYYADSVKGRFTISRDNSKNTLYLQMNSLRAEDTAVYYCARVVGYVFGGYYGGGMDYWGQGTLVTVSS VL: DIQMTQSPSSLSASVGDRVTITCRASQSISSYLNWYQQKPGKAPKLLIYAASSLQSGVPSRFSGSGSGTDFTLTISSLQPEDFATYYCQQGYGPLTFGQGTKLEIK" assigned_class="class 0"
binder="YU771-B12 (antibody, V domains shown) VH: EVQLLESGGGLVQPGGSLRLSCAASGFTFSSYPMSWVRQAPGKGLEWVSAISGYGGSTYYADSVKGRFTISRDNSKNTLYLQMNSLRAEDTAVYYCARVVGYVYGGSYGGGMDYWGQGTLVTVSS VL: DIQMTQSPSSLSASVGDRVTITCRASQSISSYLNWYQQKPGKAPKLLIYAASSLQSGVPSRFSGSGSGTDFTLTISSLQPEDFATYYCQQGYGPLTFGQGTKLEIK" assigned_class="class 0"
binder="YU772-F11 (antibody, V domains shown) VH: EVQLLESGGGLVQPGGSLRLSCAASGFTFSTYPMSWVRQAPGKGLEWVSAISGSGGSTYYADSVKGRFTISRDNSKNTLYLQMNSLRAEDTAVYYCARVVGYVYRGSYGGGMDYWGQGTLVTVSS VL: DIQMTQSPSSLSASVGDRVTITCRASQSISSYLNWYQQKPGKAPKLLIYAASSLQSGVPSRFSGSGSGTDFTLTISSLQPEDFATYYCQQGYGPLTFGQGTKLEIK" assigned_class="class 1"
binder="YU772-A11 (antibody, V domains shown) VH: EVQLLESGGGLVQPGGSLRLSCAASGFTFSSYAMSWVRQAPGKGLEWVSAISGSGGYTYYADSVKGRFTISRDNSKNTLYLQMNSLRAEDTAVYYCARVVGYVYDGAYGGGMDYWGQGTLVTVSS VL: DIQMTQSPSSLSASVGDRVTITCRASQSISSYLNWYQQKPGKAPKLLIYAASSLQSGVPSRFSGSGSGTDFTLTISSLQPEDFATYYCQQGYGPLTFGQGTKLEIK" assigned_class="class 1"

--- query ---
QUERY: Given YU772-G12 (antibody, V domains shown) VH: EVQLLESGGGLVQPGGSLRLSCAASGFPFSTYAMSWVRQAPGKGLEWVSAISGSGGYTYYADSVKGRFTISRDNSKNTLYLQMNSLRAEDTAVYYCARVVGYVYGGSYGGGMDYWGQGTLVTVSS VL: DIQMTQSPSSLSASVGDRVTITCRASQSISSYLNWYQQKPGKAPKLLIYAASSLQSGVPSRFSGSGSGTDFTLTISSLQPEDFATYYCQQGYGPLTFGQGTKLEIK , is recorded Kd strictly lower than 9 nM?
RESULT: class 1
